molecular target: BRD4(BD1) (Homo sapiens (Human), UniProt O60885); test: In vitro enzyme inhibition assay (BRD4 AlphaScreen); type: binding; details: class symbols A/B/C
Counter-ions that a name gives are not always drawn.
outcome measure: IC50

molecule: COc1ccc(-c2cc(NCC3CC3)c(=O)n(C)c2)cc1NS(C)(=O)=O [Example 112]
outcome measure: IC50
measured result: 500 to 5000 nM
//
molecule: Cn1cc(-c2cccc(S(=O)(=O)NCCO)c2)c2ccccc2c1=O [Example 22]
outcome measure: IC50
measured result: 500 to 5000 nM
//
molecule: Cn1cc(-c2cc(S(C)(=O)=O)ccc2OCC2CC2)cc(N)c1=O [Example 116]
outcome measure: IC50
measured result: < 500 nM
//
molecule: Cn1cc(-c2ccc(F)c(N)c2)c2ccccc2c1=O [Example 26, hydrochloride]
outcome measure: IC50
measured result: 500 to 5000 nM
//
molecule: Cn1cc(-c2cc(S(C)(=O)=O)ccc2OCC2CC2)c2ccccc2c1=O [Example 89]
outcome measure: IC50
measured result: < 500 nM

###

test system: HL-60, human proleukemia cells; assay: Cell-MTS proliferation assay, HL-60; assay type: cell-based; details: Homo sapiens, HL-60; Cell-MTS, 168 hr; class symbols A/B/C
outcome measure: IC50

molecular string: CCS(=O)(=O)Nc1ccc(Oc2ccc(F)cc2F)c(-c2cn(C)c(=O)c3cncn23)c1
target system: HL-60, human proleukemia cells
measured result: < 500 nM
//
molecular string: Cn1cc(-c2cc(S(C)(=O)=O)ccc2OCC2CC2)c2ccc(F)cc2c1=O
target system: HL-60, human proleukemia cells
measured result: < 500 nM
//
molecular string: Cn1cc(-c2cc(S(C)(=O)=O)ccc2Oc2ccc(F)cc2F)cc(F)c1=O
target system: HL-60, human proleukemia cells
measured result: 500 to 5000 nM
//
molecular string: Cn1cc(-c2ccc3c(c2)NC(=O)C3)c2ccccc2c1=O
target system: HL-60, human proleukemia cells
measured result: < 500 nM
//
molecular string: Cn1cc(-c2cc(S(C)(=O)=O)ccc2OCC2CC2)n2cncc2c1=O
target system: HL-60, human proleukemia cells
measured result: < 500 nM

###

system: HL-60, human proleukemia cells; assay: Cell-MTS proliferation assay, HL-60; format: cell-based; conditions: Homo sapiens, HL-60; Cell-MTS, 168 hr; class symbols A/B/C
outcome measure: IC50

molecular string: Cc1cc(=O)n(C)cc1-c1cc(NS(C)(=O)=O)ccc1Oc1ccc(F)cc1F
measured result: < 500 nM
//
molecular string: CCS(=O)(=O)Nc1ccc(Oc2ccc(F)cc2F)c(-c2cn(C)c(=O)c3ccccc23)c1
measured result: < 500 nM
//
molecular string: Cn1cc(-c2cc(F)cc(NS(C)(=O)=O)c2)c2ccccc2c1=O
measured result: 500 to 5000 nM
//
molecular string: COc1cc(F)c(CS(C)(=O)=O)cc1-c1cn(C)c(=O)c2ccc(-c3cnn(C)c3)cc12
measured result: < 500 nM
//
molecular string: CCS(=O)(=O)Nc1cccc(-c2cn(C)c(=O)c3ccc(-c4ccc(C)nc4)cc23)c1
measured result: < 500 nM
//
molecular string: Cn1cc(-c2cc(S(C)(=O)=O)ccc2OCC2CC2)ccc1=O
measured result: 500 to 5000 nM
//
molecular string: CCS(=O)(=O)Nc1cccc(-c2cn(C)c(=O)c3cnccc23)c1
measured result: 500 to 5000 nM
//
molecular string: Cc1ccc(NS(C)(=O)=O)cc1-c1cn(C)c(=O)c2ccccc12
measured result: < 500 nM

###

biological target: BRD4(BD1) (Homo sapiens (Human)); experiment: In vitro enzyme inhibition assay (BRD4 AlphaScreen); format: binding; conditions: in vitro enzyme inhibition assay
outcome measure: IC50

molecule: Cc1cc(-c2cn(CS(C)(=O)=O)c(=O)cc2OCC2CC2)cn(C)c1=O [Example 382]
outcome measure: IC50
measured result: < 500 nM

molecule: CCS(=O)(=O)c1ccc(Oc2ccc(F)cc2F)c(-c2cc(C(F)(F)F)c(=O)n(C)c2)c1 [Example 392]
outcome measure: IC50
measured result: 500 to 5000 nM

molecule: CCCCc1cnc(S(C)(=O)=O)nc1-c1cc(C(C)C)c(=O)n(C)c1 [Example 513]
outcome measure: IC50
measured result: < 500 nM

molecule: CCS(=O)(=O)Nc1ccc(OC2CCOC2)c(-c2cc(C)c(=O)n(C)c2)c1 (centres unmarked) [Example 445]
outcome measure: IC50
measured result: < 500 nM

molecule: CCCc1cnc(NS(=O)(=O)CC)nc1-c1cc(C)c(=O)n(C)c1 [Example 308]
outcome measure: IC50
measured result: < 500 nM

molecule: Cc1cc(-c2cc(OCc3ccc(F)cc3F)cc(S(C)(=O)=O)c2)cn(C)c1=O [Example 335]
outcome measure: IC50
measured result: < 500 nM

molecule: Cn1cc(-c2cc(S(C)(=O)=O)ccc2CCC2CC2)c2ccccc2c1=O [Example 319]
outcome measure: IC50
measured result: < 500 nM

molecule: Cc1cc(-c2cc(NS(C)(=O)=O)ccc2O[C@H]2CC[C@@H](O)CC2)cn(C)c1=O [Example 434]
outcome measure: IC50
measured result: < 500 nM

molecule: CCS(=O)(=O)Nc1cnc(OCC2CC2)c(-c2cn(C)c(=O)c3occc23)c1 [Example 257]
outcome measure: IC50
measured result: < 500 nM

molecule: Cc1cc(-c2cc(S(C)(=O)=O)ccc2OCC2CC2)cn(CC2CC2)c1=O [Example 242]
outcome measure: IC50
measured result: < 500 nM

molecule: CCS(=O)(=O)Nc1nc(Oc2ccc(F)cc2F)cc(-c2cc(C)c(=O)n(C)c2)n1 [Example 346]
outcome measure: IC50
measured result: 500 to 5000 nM

molecule: CCC1CCc2cc(NS(=O)(=O)CC)cc(-c3cc(C)c(=O)n(C)c3)c2O1 (centres unmarked) [Example 492]
outcome measure: IC50
measured result: < 500 nM

molecule: Cn1cc(-c2ncc3c(=O)n(C)cc(-c4cc(S(C)(=O)=O)ccc4OCC4CC4)c3n2)cn1 [Example 224]
outcome measure: IC50
measured result: < 500 nM

molecule: CCS(=O)(=O)Nc1cc(-c2ccc(=O)n(C)c2)c(-c2ccccc2C)s1 [Example 432]
outcome measure: IC50
measured result: > 5000 nM

molecule: CCS(=O)(=O)Nc1ccc(OCC2CC2)c(-c2cn(C)c(=O)c3occc23)c1 [Example 255]
outcome measure: IC50
measured result: < 500 nM

molecule: Cn1cc(-c2cn(CS(C)(=O)=O)c(=O)cc2OCC2CC2)c2ccc(F)cc2c1=O [Example 383]
outcome measure: IC50
measured result: < 500 nM

molecule: Cn1cc(-c2cc(S(C)(=O)=O)ccc2N[C@H]2CC[C@H](O)CC2)c2ccccc2c1=O [Example 192]
outcome measure: IC50
measured result: < 500 nM

###

Examples of compounds with documented pIC50 follow.
target: BRD4(BD1) (Homo sapiens (Human)); test: In vitro enzyme inhibition assay (BRD4 AlphaScreen); type: binding; conditions: in vitro enzyme inhibition assay
pIC50: −log10 of the molar value.
outcome measure: pIC50

molecular string: CCS(=O)(=O)Cc1ccc(OCC(F)(F)F)c(-c2cn(C)c(=O)c3cncn23)c1
measured result: 5.30 to 6.30

molecular string: CCS(=O)(=O)c1ccc(OCC2CC2)c(-c2cc(C)c(=O)n(C)c2)c1
measured result: > 6.30

molecular string: Cn1cc(-c2cc(CS(C)(=O)=O)ccc2OCC(F)(F)F)c2ccoc2c1=O
measured result: > 6.30

molecular string: Cn1cc(-c2nc(NS(C)(=O)=O)ncc2Oc2ccc(F)cc2F)c2ccccc2c1=O
measured result: > 6.30

###

system: HL-60, human proleukemia cells; assay: Cell-MTS proliferation assay, HL-60; type: cell-based; conditions: Homo sapiens, HL-60; Cell-MTS, 168 hr; class symbols A/B/C
pIC50: −log10 of the molar value.

molecular string: Cn1cc(-c2cc(NS(C)(=O)=O)cc(C(F)(F)F)c2)c2ccccc2c1=O
pIC50: 5.30 to 6.30

molecular string: CCS(=O)(=O)Nc1cccc(-c2cn(C)c(=O)c3ccncc23)c1
pIC50: 5.30 to 6.30

molecular string: Cc1ccc(-c2cn(C)c(=O)c3ccccc23)cc1NS(C)(=O)=O
pIC50: > 6.30

molecular string: Cn1cc(-c2cc(NS(C)(=O)=O)c(F)cc2F)c2ccccc2c1=O
pIC50: 5.30 to 6.30

molecular string: Cn1cc(-c2cccc(S(=O)(=O)N3CCCC3)c2)c2ccccc2c1=O
pIC50: 5.30 to 6.30

molecular string: CCS(=O)(=O)Nc1ccc(Oc2ccc(F)cc2F)c(-c2cc(Cl)c(=O)n(C)c2)c1
pIC50: > 6.30

molecular string: COc1ccc(-c2cn(C)c(=O)c3cncn23)cc1NS(C)(=O)=O
pIC50: 5.30 to 6.30

molecular string: COc1ccc(-c2cn(C)c(=O)c3cc(F)ccc23)cc1S(=O)(=O)NCc1ccccc1
pIC50: 5.30 to 6.30

molecular string: CCS(=O)(=O)Nc1cccc(-c2cn(C)c(=O)c3cc(F)ccc23)c1
pIC50: > 6.30

molecular string: COc1ccc(-c2cn(C)c(=O)c3ccccc23)cc1C(=O)NCc1ccccc1
pIC50: 5.30 to 6.30

molecular string: Cn1cc(-c2cc(S(C)(=O)=O)ccc2OCC2CC2)cc(F)c1=O
pIC50: 5.30 to 6.30

molecular string: CCS(=O)(=O)c1cccc(-c2cn(C)c(=O)c3cc(F)ccc23)c1
pIC50: 5.30 to 6.30

molecular string: Cn1cc(-c2ccc3c(=O)n(C)cc(-c4cc(NS(C)(=O)=O)c(F)cc4F)c3c2)cn1
pIC50: > 6.30

molecular string: Cn1cc(-c2cc(NS(C)(=O)=O)ccc2Cl)c2ccccc2c1=O
pIC50: > 6.30

molecular string: CCS(=O)(=O)Nc1cc(-c2cn(C)c(=O)c3ccc(-c4cnn(C)c4)cc23)c(OC)cc1F
pIC50: > 6.30

molecular string: Cn1cc(-c2ccc3c(=O)n(C)cc(-c4cc(S(C)(=O)=O)ccc4OCC4CC4)c3c2)cn1
pIC50: > 6.30

molecular string: CCS(=O)(=O)Nc1ccc(Oc2ccc(F)cc2F)c(-c2cn(C)c(=O)c3ccncc23)c1
pIC50: > 6.30
